Biological target: hα2C receptor (Homo sapiens)
Construct: expressed in transfected cells; host or cells: CHO cells, stably transfected; membrane preparation
Sequence (P18825 whole entry): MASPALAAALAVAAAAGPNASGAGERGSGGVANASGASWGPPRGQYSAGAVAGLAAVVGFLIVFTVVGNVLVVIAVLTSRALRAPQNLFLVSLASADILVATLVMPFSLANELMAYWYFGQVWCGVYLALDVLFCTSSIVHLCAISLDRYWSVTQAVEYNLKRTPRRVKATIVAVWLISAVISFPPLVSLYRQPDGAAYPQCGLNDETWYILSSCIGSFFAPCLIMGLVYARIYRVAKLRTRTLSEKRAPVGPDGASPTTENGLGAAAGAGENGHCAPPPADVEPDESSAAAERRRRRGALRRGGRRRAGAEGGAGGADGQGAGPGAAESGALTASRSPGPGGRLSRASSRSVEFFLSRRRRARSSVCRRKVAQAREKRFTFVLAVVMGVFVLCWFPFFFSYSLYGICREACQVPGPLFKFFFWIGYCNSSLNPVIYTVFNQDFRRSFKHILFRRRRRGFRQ
Assay: Radioligand binding experiment for α2C-adrenoceptor ([3H]raulwolscine, CHO cell membranes)
Settings: [3H]raulwolscine binding, read-out: h-α2C pIC50 (converted)
Protocol: The interaction of a compound of Formula (I) with α2-adrenoceptor receptors was assessed in in vitro radioligand binding experiments. […] When equilibrium of binding is reached, the receptor bound radioactivity is separated from the non-bound radioactivity, and the receptor- or transporter-bound activity is counted. The interaction of the test compounds with the receptor is assessed in competition binding experiments. […]
METRIC: IC50

COMPOUND SMILES	METRIC	VAL
COc1cc(CNC(=O)NCc2ccc(Cn3ccnc(NC4CCN(C/C(C)=C/c5ccccc5)CC4)c3=O)cc2)cc(OC)c1	IC50	39.8 nM
C/C(=C\c1ccccc1)CN1CCC(Nc2nccn(-c3ccc(NC(=O)CC4CCCC4)cc3)c2=O)CC1	IC50	50.1 nM
C/C(=C\c1ccccc1)CN1CCC(Nc2nccn(CC(=O)N(CCCn3ccnc3)Cc3ccc(F)cc3)c2=O)CC1	IC50	3.16 nM
COC(=O)Cn1ccnc(NC2CCN(C/C(C)=C/c3ccccc3)CC2)c1=O	IC50	10 nM
C/C(=C\c1ccccc1)CN1CCC(Nc2nccn(Cc3cccc(F)c3)c2=O)CC1	IC50	25.1 nM
C/C(=C\c1ccccc1)CN1CCC(Nc2nccn(Cc3ccc(CNC(=O)NCCc4ccccc4)cc3)c2=O)CC1	IC50	63.1 nM
C/C(=C\c1ccccc1)CN1CCC(Nc2nccn(Cc3ccc(CNC(=O)NCc4ccccc4)cc3)c2=O)CC1	IC50	63.1 nM
C/C(=C\c1ccccc1)CN1CCC(Nc2nccn(-c3cccc(N4CCN(c5ccccc5)CC4)c3)c2=O)CC1	IC50	20 nM

----------
# IC50 annotations
Target: 5HT-Transporter (Homo sapiens)
Construct: Human platelet membranes (Oceanix Biosciences Corporation, Hanover, Md., USA) were thawed; tissue Oceanix Biosciences Corporation, Hanover, Md., USA; host or cells: human platelet membranes
Experiment: Binding experiment for the 5HT-transporter ([3H]paroxetine, human platelet membranes)
Conditions: [3H]paroxetine 0.5 nM, read-out: h-5HTT pIC50 (converted)

COMPOUND SMILES	VALUE UNITS	IC50
C/C(=C\c1ccccc1)CN1CCC(Nc2nccn(Cc3ccc(CNS(=O)(=O)c4ccc(C#N)cc4)cc3)c2=O)CC1	nM	501
C/C(=C\c1ccccc1)CN1CCC(Nc2nccn(CC(=O)NCCN(C)C)c2=O)CC1	nM	3160
C/C(=C\c1ccccc1)CN1CCC(Nc2nccn(CC(=O)N3CCCCC3)c2=O)CC1	nM	5010
COCC(=O)NCc1ccc(Cn2ccnc(NC3CCN(C/C(C)=C/c4ccccc4)CC3)c2=O)cc1	nM	1260
C/C(=C\c1ccccc1)CN1CCC(Nc2nccn(CCCNS(C)(=O)=O)c2=O)CC1	nM	1260
C/C(=C\c1ccccc1)CN1CCC(Nc2nccn(CC(=O)NCCN3CCOCC3)c2=O)CC1	nM	1260
C/C(=C\c1ccccc1)CN1CCC(Nc2nccn(Cc3ccccn3)c2=O)CC1	nM	3980
C/C(=C\c1ccccc1)CN1CCC(Nc2nccn(Cc3ccc(NCCN(C)C)cc3)c2=O)CC1	nM	200

----------
Molecular target: 5HT-Transporter (Homo sapiens, UniProt P31645)
Construct: Human platelet membranes (Oceanix Biosciences Corporation, Hanover, Md., USA) were thawed; tissue Oceanix Biosciences Corporation, Hanover, Md., USA; host or cells: human platelet membranes
Sequence (P31645 whole entry): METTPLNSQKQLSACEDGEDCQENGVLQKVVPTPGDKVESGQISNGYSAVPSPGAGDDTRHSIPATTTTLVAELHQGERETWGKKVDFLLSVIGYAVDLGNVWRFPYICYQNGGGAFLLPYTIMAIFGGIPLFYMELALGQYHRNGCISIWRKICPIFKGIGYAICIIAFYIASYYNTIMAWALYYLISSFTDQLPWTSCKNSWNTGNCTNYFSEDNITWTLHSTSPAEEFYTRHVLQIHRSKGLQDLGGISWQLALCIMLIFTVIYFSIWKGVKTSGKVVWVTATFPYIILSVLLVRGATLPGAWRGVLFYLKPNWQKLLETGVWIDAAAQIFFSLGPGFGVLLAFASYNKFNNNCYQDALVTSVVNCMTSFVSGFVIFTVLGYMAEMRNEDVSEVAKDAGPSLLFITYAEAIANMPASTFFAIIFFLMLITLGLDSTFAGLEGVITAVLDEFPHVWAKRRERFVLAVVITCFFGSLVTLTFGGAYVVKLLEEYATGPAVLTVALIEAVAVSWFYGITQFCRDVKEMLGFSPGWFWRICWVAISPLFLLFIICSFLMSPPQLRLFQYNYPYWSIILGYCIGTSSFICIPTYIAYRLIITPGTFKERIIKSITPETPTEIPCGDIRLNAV
Assay: Binding experiment for the 5HT-transporter ([3H]paroxetine, human platelet membranes)
Settings: [3H]paroxetine 0.5 nM, read-out: h-5HTT pIC50 (converted)
METRIC: IC50

COMPOUND	VAL
C/C(=C\c1ccccc1)CN1CCC(Nc2nccn(Cc3ccccc3C#N)c2=O)CC1 [5-19]	398 nM
C/C(=C\c1ccccc1)CN1CCC(Nc2nccn(-c3ccc(NC(=O)Nc4ccc(F)cc4)cc3)c2=O)CC1 [1-120]	126 nM
C/C(=C\c1ccccc1)CN1CCC(Nc2nccn(CC(=O)Nc3ccc(F)cc3)c2=O)CC1 [1-42]	501 nM
C/C(=C\c1ccccc1)CN1CCC(Nc2nccn(CC(=O)NCCCN(C)C)c2=O)CC1 [1-107]	2000 nM
C/C(=C\c1ccccc1)CN1CCC(Nc2nccn(Cc3ccc(CNC(=O)C4CCCCC4)cc3)c2=O)CC1 [1-36]	398 nM
C/C(=C\c1ccccc1)CN1CCC(Nc2nccn(-c3ccc(F)cc3)c2=O)CC1 [5-2]	398 nM
C/C(=C\c1ccccc1)CN1CCC(Nc2nccn(Cc3ccccc3C)c2=O)CC1 [5-10]	398 nM
C/C(=C\c1ccccc1)CN1CCC(Nc2nccn(Cc3cccc4ccccc34)c2=O)CC1 [5-34]	398 nM

----------
Biological target: 5HT-Transporter (Homo sapiens)
Construct: Human platelet membranes (Oceanix Biosciences Corporation, Hanover, Md., USA) were thawed; tissue Oceanix Biosciences Corporation, Hanover, Md., USA; host or cells: human platelet membranes
Assay: Binding experiment for the 5HT-transporter ([3H]paroxetine, human platelet membranes)
Details: [3H]paroxetine 0.5 nM, read-out: h-5HTT pIC50 (converted)
Strictly below 0.3 µM in IC50: fulfilled. Otherwise: not fulfilled.

COMPOUND SMILES	CLASS
C/C(=C\c1ccccc1)CN1CCC(Nc2nccn(Cc3cccc(C(F)(F)F)c3)c2=O)CC1	not fulfilled
C/C(=C\c1ccccc1)CN1CCC(Nc2nccn(CC(=O)c3ccccc3)c2=O)CC1	not fulfilled
C/C(=C\c1ccccc1)CN1CCC(Nc2nccn(Cc3ccc(CNC(=O)NC4CCCCC4)cc3)c2=O)CC1	not fulfilled
CN(C)CCn1ccnc(NC2CCN(C/C=C/c3ccccc3)CC2)c1=O	not fulfilled
O=c1c(NC2CCN(C/C=C/c3ccccc3)CC2)nccn1CCN1CCCCC1	not fulfilled
C/C(=C\c1ccccc1)CN1CCC(Nc2nccn(Cc3ccccc3Cl)c2=O)CC1	fulfilled
C/C(=C\c1ccccc1)CN1CCC(Nc2nccn(CCCN(Cc3ccccc3)S(C)(=O)=O)c2=O)CC1	not fulfilled
C/C(=C\c1ccccc1)CN1CCC(Nc2nccn(CCCCN3C(=O)c4ccccc4C3=O)c2=O)CC1	fulfilled

----------
Target: hα2A receptor (Homo sapiens)
Construct: expressed in transfected cells; host or cells: CHO cells, stably transfected; membrane preparation
Sequence (P08913 1-465): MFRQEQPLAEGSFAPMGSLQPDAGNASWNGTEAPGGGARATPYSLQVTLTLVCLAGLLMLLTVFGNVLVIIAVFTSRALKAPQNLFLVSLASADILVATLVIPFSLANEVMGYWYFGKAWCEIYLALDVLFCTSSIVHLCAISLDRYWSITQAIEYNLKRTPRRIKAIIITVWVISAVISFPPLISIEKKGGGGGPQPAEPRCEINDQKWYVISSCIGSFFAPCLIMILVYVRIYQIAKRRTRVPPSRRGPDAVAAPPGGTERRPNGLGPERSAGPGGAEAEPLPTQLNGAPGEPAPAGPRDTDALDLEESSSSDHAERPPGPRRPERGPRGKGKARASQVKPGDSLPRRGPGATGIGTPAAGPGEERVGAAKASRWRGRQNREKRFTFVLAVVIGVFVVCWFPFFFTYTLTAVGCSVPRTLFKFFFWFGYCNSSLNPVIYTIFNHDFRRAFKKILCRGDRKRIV
Assay: Radioligand binding experiment for α2A-adrenoceptor ([3H]raulwolscine, CHO cell membranes)
Conditions: [3H]raulwolscine binding, read-out: h-α2A pIC50 (converted)

MOLECULE	TESTED TARGET	IC50
C/C(=C\c1ccccc1)CN1CCC(Nc2nccn(CC(=O)N(CCO)Cc3ccccc3)c2=O)CC1	hα2A receptor (Homo sapiens)	100 nM
C/C(=C\c1ccccc1)CN1CCC(Nc2nccn(CC(=O)N3CCN(C(=O)C4CCCO4)CC3)c2=O)CC1 (centres unmarked)	hα2A receptor (Homo sapiens)	158 nM
CC(=O)Cn1ccnc(NC2CCN(C/C=C/c3ccccc3)CC2)c1=O	hα2A receptor (Homo sapiens)	1000 nM
C/C(=C\c1ccccc1)CN1CCC(Nc2nccn(-c3ccc(C(=O)N4CCC(C)CC4)cc3)c2=O)CC1	hα2A receptor (Homo sapiens)	63.1 nM
CNCc1ccc(Cn2ccnc(NC3CCN(C/C(C)=C/c4ccccc4)CC3)c2=O)cc1	hα2A receptor (Homo sapiens)	31.6 nM
C/C(=C\c1ccccc1)CN1CCC(Nc2nccn(Cc3cccc(C(F)(F)F)c3)c2=O)CC1	hα2A receptor (Homo sapiens)	126 nM
C/C(=C\c1ccccc1)CN1CCC(Nc2nccn(-c3cnc4ccccc4c3)c2=O)CC1	hα2A receptor (Homo sapiens)	63.1 nM
C=CCn1ccnc(NC2CCN(C/C(C)=C/c3ccccc3)CC2)c1=O	hα2A receptor (Homo sapiens)	31.6 nM

----------
Target: hα2A receptor (Homo sapiens, UniProt P08913)
Construct: expressed in transfected cells; host or cells: CHO cells, stably transfected; membrane preparation
Sequence (P08913 1-465): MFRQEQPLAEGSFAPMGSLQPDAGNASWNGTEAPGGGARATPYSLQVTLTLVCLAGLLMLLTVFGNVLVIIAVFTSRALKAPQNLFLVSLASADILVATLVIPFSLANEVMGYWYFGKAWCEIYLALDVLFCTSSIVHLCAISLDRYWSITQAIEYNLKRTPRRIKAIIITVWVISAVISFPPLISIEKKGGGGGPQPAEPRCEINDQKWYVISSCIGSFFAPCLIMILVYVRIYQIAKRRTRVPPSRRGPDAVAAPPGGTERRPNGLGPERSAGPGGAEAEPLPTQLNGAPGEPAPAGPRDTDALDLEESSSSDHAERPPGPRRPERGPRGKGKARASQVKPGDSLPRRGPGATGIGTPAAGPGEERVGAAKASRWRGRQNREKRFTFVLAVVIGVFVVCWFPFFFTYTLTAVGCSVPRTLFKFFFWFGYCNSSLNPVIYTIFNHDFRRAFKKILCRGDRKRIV
Assay: Radioligand binding experiment for α2A-adrenoceptor ([3H]raulwolscine, CHO cell membranes)
Conditions: [3H]raulwolscine binding, read-out: h-α2A pIC50 (converted)
METRIC: log10 of IC50 (log10 of the value in nM)

MOLECULE	METRIC	VAL
C/C(=C\c1ccccc1)CN1CCC(Nc2nccn(CC(=O)NCc3cccnc3)c2=O)CC1	log10 of IC50	2.00
C/C(=C\c1ccccc1)CN1CCC(Nc2nccn(CC(=O)c3ccc(N4CCCC4)cc3)c2=O)CC1	log10 of IC50	1.50
C/C(=C\c1ccccc1)CN1CCC(Nc2nccn(-c3cccc(N4CCN(c5ccccc5)CC4)c3)c2=O)CC1	log10 of IC50	1.50
C/C(=C\c1ccccc1)CN1CCC(Nc2nccn(CC(=O)N(C)C)c2=O)CC1	log10 of IC50	2.00
C/C(=C\c1ccccc1)CN1CCC(Nc2nccn(CC(=O)NC(C)(C)Cc3ccccc3)c2=O)CC1	log10 of IC50	2.10
COC(=O)CN(C)Cc1ccc(-n2ccnc(NC3CCN(C/C(C)=C/c4ccccc4)CC3)c2=O)cc1	log10 of IC50	1.90
C/C(=C\c1ccccc1)CN1CCC(Nc2nccn(-c3ccc(C(=O)NC4CCN(Cc5ccccc5)CC4)cc3)c2=O)CC1	log10 of IC50	1.80
COCCOCCn1ccnc(N(C)C2CCN(C/C(C)=C/c3ccccc3)CC2)c1=O	log10 of IC50	2.10
C/C(=C\c1ccccc1)CN1CCC(Nc2nccn(CC(=O)N3CCN(c4ccc(C)c(C)c4)CC3)c2=O)CC1	log10 of IC50	2.20
C/C(=C\c1ccccc1)CN1CCC(Nc2nccn(CCCN)c2=O)CC1 [1-2]	log10 of IC50	1.60
O=c1c(NC2CCN(C/C=C/c3ccccc3)CC2)nccn1Cc1ccc2ccccc2n1	log10 of IC50	2.70
C=CCN1CCN(C(=O)c2ccc(-n3ccnc(NC4CCN(C/C(C)=C/c5ccccc5)CC4)c3=O)cc2)CC1	log10 of IC50	2.10
C/C(=C\c1ccccc1)CN1CCC(Nc2nccn(CCCN(C)Cc3ccccc3)c2=O)CC1	log10 of IC50	1.70
C/C(=C\c1ccccc1)CN1CCC(Nc2nccn(Cc3ccccc3CS(=O)(=O)c3ccccc3)c2=O)CC1	log10 of IC50	2.20
CCOC(=O)N1CCN(C(=O)Cn2ccnc(NC3CCN(C/C(C)=C/c4ccccc4)CC3)c2=O)CC1	log10 of IC50	2.20
COCCn1ccnc(NC2CCN(C/C(C)=C/c3ccccc3)CC2)c1=O	log10 of IC50	2.50
CCCNC(=O)c1ccc(-n2ccnc(NC3CCN(C/C(C)=C/c4ccccc4)CC3)c2=O)cc1	log10 of IC50	1.90
